biological target: Rat IL-23R_huFC (rat) (UniProt F1LX96); test: rat IL-23R competitive binding ELISA
pIC50: −log10 of the molar value. Bridges are numbered along the chain shown (N, C = ends). [ ]: non-standard residue; d: D form. 2Nal = N[C@@H](Cc1ccc2ccccc2c1)C(=O)O; AEF = NCCOc1ccc(C[C@H](N)C(=O)O)cc1; Pen = CC(C)(S)[C@H](N)C(=O)O; αMeK = C[C@](N)(CCCCN)C(=O)O; Dap = NC[C@H](N)C(=O)O
# pIC50 listing for each entry below

binder: XNTWQXFXXKNA (Ac; Pen-Pen disulfide; Phe[4-(2-aminoethoxy)]; 2-Nal; Aib; Lys(Ac); βAla; NH2) [Ac-[Pen]-NTWQ-[Pen]-[Phe[4-(2-aminoethoxy)]-[2-Nal]-[Aib]-[Lys(Ac)]-N-[βAla]-NH2]
resultValue: 7.60 to 8.00
--
binder: XQTWQXYXXENG (Ac; Pen-Pen disulfide; 1-Nal; α-MeOrn; NH2) [Ac-[Pen]-QTWQ-[Pen]-Y-[1-Nal]-[α-MeOrn]-ENG-NH2]
resultValue: 6.00 to 7.00
--
binder: Ac-[Pen][Dap]TWQ[Pen][AEF][2Nal][αMeK]ENG-NH2 (disulfide 1-6 (inferred)) [Ac-[Pen]-[Dap]-TWQ-[Pen]-[Phe[4-(2-aminoethoxy)]-[2-Nal]-[α-MeLys]-ENG-NH2]
resultValue: 7.00 to 7.60

Enquiry: Please report the recorded pIC50 for XNTWQXFXXKNN (Ac; Pen-Pen disulfide; Phe[4-(2-aminoethoxy)]; 2-Nal; Aib; Lys(Ac); NH2) [Ac-[Pen]-NTWQ-[Pen]-[Phe[4-(2-aminoethoxy)]-[2-Nal]-[Aib]-[Lys(Ac)]-NN-NH2] .
Return: > 8.00
